Origin of values: PubChem BioAssay

// reported z-score for each item listed
- measurement.notes: PSAC antagonists in infected red cells, primary screen, cell-based, P. falciparum Indochina, OD700, 2 h (AID 1155);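 also: lysis reports solute entry through the parasite surface anion channel PSAC; channel blockers reduce lysis of infected cells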
- measurement.parameters: P. falciparum Indochina infected erythrocytes, osmotic lysis OD700; higher = more signal, called active from +8 up or from −8 down
Lab note: record the figure alone, no unit after it.

Some solved cases for reference:
compound	z-score
COCCOC(=O)N1C(=O)[C@@]2(c3cc(C#CC4(O)CCCCCC4)ccc31)[C@H](C(N)=O)[C@H]1C(=O)O[C@H](c3ccccc3)[C@H](c3ccccc3)N1[C@@H]2c1ccc(OCCO)cc1	1.45
CC(C)c1ccc(NN2C(C(O)C3=C[C@H]4C[C@@H](C3)C4(C)C)C=CC3C(=O)N(c4ccccc4)C(=O)C32)cc1 (stereo partly specified)	1.13
COC(=O)C(CC#Cc1ccc2c(c1)[C@]1(C(=O)N2)[C@H](C(N)=O)[C@H]2C(=O)O[C@H](c3ccccc3)[C@H](c3ccccc3)N2[C@@H]1c1ccccc1OCCO)C(=O)OC	3.83

In: Look up z-score for this compound: C=CCOC(=O)[C@H]1[C@@H]2C(=O)O[C@@H](c3ccccc3)[C@@H](c3ccccc3)N2[C@@H](c2ccc(OCCOC(=O)[C@H]3C[C@H]4C(=O)NCC(=O)N4[C@H]3c3cccc(OCCO)c3)cc2)[C@]12C(=O)Nc1ccc(I)cc12
Out: 2.48

In: Look up z-score for this compound: COC(=O)c1ccc(OC)c(/C=C\CC(OC(=O)c2ccncc2)c2ccccc2)c1 (stereo unspecified)
Out: 3.1

In: Look up z-score for this compound: COc1ccc(C(=O)Nc2cccc(CN3C(=O)[C@]4(O[C@H](CC(=O)N(CCO)Cc5ccccc5)[C@@H]([Si](C)(C)c5ccc(OC)cc5)[C@@H]4C)c4ccccc43)c2)cc1
Out: 0.614
